Each record here notes measured ECL signal.
Subject Of Test: T1, rHuman ErbB2/Fc Chimera, CF (human, UniProt P04626 23-652)
T1 construct: Bought from R&D Systems; also called human epidermal growth factor 2 receptor; not shown: Fc of the bought chimera
Assay Text: ECL Multispot (MSD) assay; antigen spotted on plate, Fab in solution;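 note: fab bound 1 h at 20 °C, detected by TAG-labelled antibody electrochemiluminescence, signal relative to each well's blank, ratio of 4 or more marks a hit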
Form rule: numeric answer, no unit written next to it.

>  <Binder>
Fab VH1-46_IGHD6-6*01_IGHJ1*01 S102A/S103P/S104F/H111F (APFF) & L6_IGKJ1*01 S28F (Fab, V domains shown, Fab made in E. coli; the variable domains were cloned into Plasmid A (CH1, His and Flag tags) and Plasmid C (kappa CL); also called APFF / S28F) VH: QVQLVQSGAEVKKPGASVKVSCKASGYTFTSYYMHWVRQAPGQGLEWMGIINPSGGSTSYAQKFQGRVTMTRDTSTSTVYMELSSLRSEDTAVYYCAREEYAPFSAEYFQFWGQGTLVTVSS VL: EIVLTQSPATLSLSPGERATLSCRASQFVSSYLAWYQQKPGQAPRLLIYDASNRATGIPARFSGSGSGTDFTLTISSLEPEDFAVYYCQQRSNWPPWTFGQGTKVEIKR

>  <ECL signal>
242

$$$$

Next binder, ECL signal to be filled in.
Request: For Fab VH1-46_IGHD6-6*01_IGHJ1*01 S102A/S103P/S104F/H111F (APFF) & L6_IGKJ1*01 S28V (Fab, V domains shown, Fab made in E. coli; the variable domains were cloned into Plasmid A (CH1, His and Flag tags) and Plasmid C (kappa CL); also called APFF / S28V) VH: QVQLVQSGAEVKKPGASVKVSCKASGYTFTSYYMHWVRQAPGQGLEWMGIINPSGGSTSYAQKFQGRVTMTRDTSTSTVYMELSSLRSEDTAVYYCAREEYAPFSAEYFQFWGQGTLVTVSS VL: EIVLTQSPATLSLSPGERATLSCRASQVVSSYLAWYQQKPGQAPRLLIYDASNRATGIPARFSGSGSGTDFTLTISSLEPEDFAVYYCQQRSNWPPWTFGQGTKVEIKR , what is its reported ECL signal?
Response: 231
